- system-tested: Human DGAT1 (Homo sapiens)
- Construct: my translation of the primer: M-G-DYKDDDD-GDRGSSRRR) (N); made in house; host or cells: Sf9 insect cells (recombinant baculovirus BAC-DGAT1, pFASTBAC1); microsome fraction
- run-description: DGAT inhibitory activity: [14C]-triglyceride synthesis by DGAT1 high expression Sf9 microsome
- Format: biochemical
- experimental-setup: Table 2, 25 μM dioleoylglycerol, 25 μM [14C]-Oleoyl-CoA, 32° C., 15 min, read-out: DGAT inhibitory activity (according to IC50)

| chemical-string | system-tested | IC50 |
| --- | --- | --- |
| CCOc1ccc(C(=O)CCC(=O)Nc2cc(-c3ccccc3OC)cc(-c3ccccc3)n2)cc1OCC | Human DGAT1 (Homo sapiens) | ≤ 10 nM |
| O=C(CCC(=O)c1ccc2c(c1)CCO2)Nc1cc(-c2cccc(CO)c2)cc(-c2ccccc2)n1 | Human DGAT1 (Homo sapiens) | 50 to 500 nM |
| CCOc1ccc(C(=O)CCC(=O)Nc2cc(-c3ccccc3)c3ccc(/C=C/C(=O)O)cc3n2)cc1OCC | Human DGAT1 (Homo sapiens) | 50 to 500 nM |
| CCOc1ccc(C(=O)CCC(=O)Nc2cc(-c3ccccc3)c(Cc3ccccc3)s2)cc1Br | Human DGAT1 (Homo sapiens) | 50 to 500 nM |
| CCOc1ccc(C(=O)CCC(=O)Nc2cc(-c3ccccc3)cc(-c3ccccc3)n2)cc1 | Human DGAT1 (Homo sapiens) | 50 to 500 nM |
| CCOc1ccc(C(=O)CCC(=O)Nc2cc(-c3ccc(C#N)cc3)cc(-c3ccccc3)n2)cc1OCC | Human DGAT1 (Homo sapiens) | 50 to 500 nM |

----------
- system-tested: Human DGAT1 (Homo sapiens, UniProt O75907)
- Construct: my translation of the primer: M-G-DYKDDDD-GDRGSSRRR) (N); made in house; host or cells: Sf9 insect cells (recombinant baculovirus BAC-DGAT1, pFASTBAC1); microsome fraction
- Sequence (O75907 1-488): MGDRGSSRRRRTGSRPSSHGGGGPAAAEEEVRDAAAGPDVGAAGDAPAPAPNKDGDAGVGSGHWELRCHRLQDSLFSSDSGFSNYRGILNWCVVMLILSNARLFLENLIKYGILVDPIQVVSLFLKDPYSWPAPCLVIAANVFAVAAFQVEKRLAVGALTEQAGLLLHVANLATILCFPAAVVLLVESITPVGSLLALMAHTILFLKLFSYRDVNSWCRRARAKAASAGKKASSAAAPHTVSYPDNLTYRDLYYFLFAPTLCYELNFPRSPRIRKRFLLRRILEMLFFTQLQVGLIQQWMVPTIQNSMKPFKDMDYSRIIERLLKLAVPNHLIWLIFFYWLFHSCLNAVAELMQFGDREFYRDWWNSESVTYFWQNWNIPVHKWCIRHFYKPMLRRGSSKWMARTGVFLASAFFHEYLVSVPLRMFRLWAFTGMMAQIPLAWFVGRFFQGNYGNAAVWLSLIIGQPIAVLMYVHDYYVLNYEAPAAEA
- run-description: DGAT inhibitory activity: [14C]-triglyceride synthesis by DGAT1 high expression Sf9 microsome
- Type: biochemical
- experimental-setup: Table 2, 25 μM dioleoylglycerol, 25 μM [14C]-Oleoyl-CoA, 32° C., 15 min, read-out: DGAT inhibitory activity (according to IC50)
- Experimental: The primer base sequence is shown below. The PCR reaction was conducted using a KOD-plus kit (TOYOBO). […] As a DGAT1 reaction buffer, a solution having a composition of 100 mM Tris-HCl (pH 7.5), 250 mM sucrose, 150 mM MgCl2, 0.01% bovine serum albumin (BSA) was used. […] The inhibitory rate was calculated by the following formula: […]

| chemical-string | IC50 |
| --- | --- |
| CCOc1ccc(C(=O)CCC(=O)Nc2cc(-c3ccc(CN4CCOCC4)cc3)cc(-c3ccccc3)n2)cc1OCC | 500 to 10000 nM |
| CCOc1ccc(C(=O)CCC(=O)Nc2cc(-c3cccc(C(=O)OC)c3)cc(-c3ccccc3)n2)cc1OCC | 500 to 10000 nM |
| O=C(CCC(=O)c1ccc2c(c1)CCO2)Nc1cc(-c2ccccc2C(=O)O)cc(-c2ccccc2)n1 | 500 to 10000 nM |
| CCOc1ccc(C(=O)CCC(=O)Nc2cc(-c3ccc(C)cc3)c3cc(Br)ccc3n2)cc1OCC | 10 to 50 nM |
| CCOc1ccc(C(=O)CCC(=O)Nc2cc(-c3ccc(CCC(=O)OC)cc3)cc(-c3ccccc3)n2)cc1OCC | 50 to 500 nM |
| O=C(CCC(=O)c1ccc2c(c1)CCO2)Nc1cc(-c2ccc3[nH]ccc3c2)cc(-c2ccccc2)n1 | 10 to 50 nM |
| CCOc1ccc(C(=O)CCC(=O)Nc2cc(-c3ccccn3)c3ccccc3n2)cc1OCC | 50 to 500 nM |
| CCOc1ccc(C(=O)CCC(=O)Nc2cc(-c3ccc(N(C)C)cc3)cc(-c3ccccc3)n2)cc1OCC | 50 to 500 nM |
| O=C(CCC(=O)c1ccc2c(c1)CCCC2)Nc1cc(-c2ccccc2)c(Cc2ccccc2)s1 | 50 to 500 nM |
| O=C(CCC(=O)c1ccc2c(c1)CCO2)Nc1cc(-c2ccncc2)cc(-c2ccccc2)n1 | 500 to 10000 nM |

----------
Measured IC50 of individual entries
- system-tested: Human DGAT1 (Homo sapiens)
- Construct: my translation of the primer: M-G-DYKDDDD-GDRGSSRRR) (N); made in house; host or cells: Sf9 insect cells (recombinant baculovirus BAC-DGAT1, pFASTBAC1); microsome fraction
- run-description: DGAT inhibitory activity: [14C]-triglyceride synthesis by DGAT1 high expression Sf9 microsome
- Type: biochemical
- experimental-setup: Table 1, 25 μM dioleoylglycerol, 25 μM [14C]-Oleoyl-CoA, 32° C., 15 min, read-out: DGAT inhibitory activity (according to IC50)

| compound | IC50 |
| --- | --- |
| CCOc1ccc(C(=O)CCC(=O)Nc2ccc(CN3CCOCC3)c(-c3ccccc3)c2)cc1OCC | 500 to 10000 nM |
| CCOc1ccc(C(=O)CCC(=O)Nc2sc(-c3ccccc3)nc2-c2ccccc2)cc1OCC | 50 to 500 nM |
| CCOc1ccc(C(=O)CCC(=O)Nc2cc(-c3ccccc3)sc2-c2ccccc2)cc1OCC | 50 to 500 nM |
| O=C(O)COc1ccc(C(=O)CCC(=O)Nc2nc(-c3ccccc3)c(Cc3ccccc3)s2)cc1 | 500 to 10000 nM |
| CCOC(=O)Cc1ccc(C(=O)CCC(=O)Nc2nc(-c3ccccc3)c(Cc3ccccc3)s2)cc1 | 50 to 500 nM |
| CCOc1ccc(C(=O)C(C)CC(=O)Nc2nc(-c3ccccc3)c(Cc3ccccc3)s2)cc1OCC (centres unmarked) | ≤ 10 nM |
| CCOc1ccc(C(=O)CCC(=O)Nc2ncc(-c3ccccc3)cc2-c2ccccc2)cc1OCC | 50 to 500 nM |
| CCOc1ccc(C(=O)CCC(=O)Nc2cc(-c3ccccc3)nc(-c3ccccc3)n2)cc1OCC | 50 to 500 nM |
| CCOc1ccc(C(=O)CCC(=O)Nc2cc(-c3ccccc3)c(Cc3ccccc3)s2)cc1OCC | 10 to 50 nM |
| CCOc1ccc(C(=O)CCC(=O)Nc2cc(-c3ccccc3)cc(-c3ccccc3)n2)cc1OCC | 10 to 50 nM |
| CCOc1ccc(C(=O)CCC(=O)Nc2cc(-c3ccc(F)cc3)cc(-c3ccccc3)n2)cc1OCC | 50 to 500 nM |

----------
Measured pIC50 of individual entries
- system-tested: Human DGAT1 (Homo sapiens)
- Construct: my translation of the primer: M-G-DYKDDDD-GDRGSSRRR) (N); made in house; host or cells: Sf9 insect cells (recombinant baculovirus BAC-DGAT1, pFASTBAC1); microsome fraction
- run-description: DGAT inhibitory activity: [14C]-triglyceride synthesis by DGAT1 high expression Sf9 microsome
- Assay type: biochemical
- experimental-setup: Table 2, 25 μM dioleoylglycerol, 25 μM [14C]-Oleoyl-CoA, 32° C., 15 min, read-out: DGAT inhibitory activity (according to IC50)
pIC50: −log10 of the molar value.
parameter-measured: pIC50

| chemical-string | experimental-result |
| --- | --- |
| O=C(CCC(=O)c1ccc2c(c1)CCO2)Nc1cc(-c2cccc(C(=O)O)c2)cc(-c2ccccc2)n1 | 5.00 to 6.30 |
| CCOc1ccc(C(=O)CCC(=O)Nc2cn(-c3ccccc3)nc2-c2ccc(F)cc2)cc1OCC | 6.30 to 7.30 |
| CCOc1ccc(C(=O)CCC(=O)Nc2cc(-c3ccccc3O)cc(-c3ccccc3)n2)cc1OCC | ≥ 8.00 |
| CCCCOc1cccc(-c2cc(NC(=O)CCC(=O)c3ccc(OCC)c(OCC)c3)nc(-c3ccccc3)c2)c1 | 5.00 to 6.30 |
| CCOC(=O)/C=C/c1ccc2nc(NC(=O)CCC(=O)c3ccc(OCC)c(OCC)c3)cc(-c3ccc(C)cc3)c2c1 | 7.30 to 8.00 |
| CCOc1ccc(C(=O)CCC(=O)Nc2cc(-c3cccc(CC#N)c3)cc(-c3ccccc3)n2)cc1OCC | 7.30 to 8.00 |
| CCOc1ccc(C(=O)CCC(=O)Nc2cc(-c3ccccc3)c3ccc(Br)cc3n2)cc1OCC | 6.30 to 7.30 |
| CCOc1ccc(C(=O)CCC(=O)Nc2cc(-c3ccc4c(c3)OCO4)cc(-c3ccccc3)n2)cc1OCC | 6.30 to 7.30 |
| CCCc1cc(C(=O)CCC(=O)Nc2cc(-c3ccccc3)c(Cc3ccccc3)s2)ccc1OCC | 6.30 to 7.30 |
| CCOc1ccc(C(=O)CCC(=O)Nc2cc(-c3cccc(OC)c3)cc(-c3ccccc3)n2)cc1OCC | 6.30 to 7.30 |
| CCOc1ccc(C(=O)CCC(=O)Nc2cc(-c3cccn3C(=O)OC(C)(C)C)cc(-c3ccccc3)n2)cc1OCC | 5.00 to 6.30 |
| O=C(O)/C=C/c1cccc(-c2cc(NC(=O)CCC(=O)c3ccc4c(c3)CCO4)nc(-c3ccccc3)c2)c1 | 5.00 to 6.30 |
| CCOc1ccc(C(=O)CCC(=O)Nc2cc(-c3cc(OC)c(OC)c(OC)c3)cc(-c3ccccc3)n2)cc1OCC | 5.00 to 6.30 |
| COC(=O)/C=C/c1ccc(-c2cc(NC(=O)CCC(=O)c3ccc4c(c3)CCO4)nc(-c3ccccc3)c2)cc1 | 5.00 to 6.30 |
| Cc1cc(-c2cc(NC(=O)CCC(=O)c3ccc4c(c3)CCO4)nc(-c3ccccc3)c2)cc(C)c1O | 6.30 to 7.30 |
| CCOc1ccc(C(=O)CCC(=O)Nc2cc(-c3ccc(C)cc3)c3cc(/C=C/C(=O)OC(C)(C)C)ccc3n2)cc1OCC | 6.30 to 7.30 |
| CCCCc1ccc(C(=O)c2sc(NC(=O)CCC(=O)c3cc(OCC)c(OCC)cc3C)nc2-c2ccccc2)cc1 | 6.30 to 7.30 |
| N#CCc1cccc(-c2cc(NC(=O)CCC(=O)c3ccc4c(c3)CCO4)nc(-c3ccccc3)c2)c1 | 7.30 to 8.00 |
| CCOc1ccc(C(=O)CCC(=O)Nc2cc(-c3cccc(CCC(=O)O)c3)cc(-c3ccccc3)n2)cc1OCC | 5.00 to 6.30 |
| CC(=O)c1cccc(-c2cc(NC(=O)CCC(=O)c3ccc4c(c3)CCO4)nc(-c3ccccc3)c2)c1 | 6.30 to 7.30 |
| N#Cc1ccccc1-c1cc(NC(=O)CCC(=O)c2ccc3c(c2)CCO3)nc(-c2ccccc2)c1 | ≥ 8.00 |
| CCOc1ccc(C(=O)CCC(=O)Nc2cc(-c3cccc(CCC(=O)OC)c3)cc(-c3ccccc3)n2)cc1OCC | 6.30 to 7.30 |
